Source listed as ChEMBL document CHEMBL3352236.

biological target: Tubulin (Bos taurus, UniProt Q6B856+Q862L2+Q862F3); assay: Inhibition of bovine brain tubulin preincubated for 20 mins by turbidimetry
QUANTITY_MEASURED: IC50 (µM)

I: O=C(OCCn1c([N+](=O)[O-])cnc1/C=C\c1ccccc1[N+](=O)[O-])c1c[nH]c2ccccc12
II: O=C(OCCn1c([N+](=O)[O-])cnc1/C=C\c1ccccc1)c1c[nH]c2ccccc12
[ask] # query: argmin of IC50 over I and II Bench note: the answer is the label of the chosen record.
[reply] I

I: Cc1ccc(/C=C\c2ncc([N+](=O)[O-])n2CCOC(=O)c2c[nH]c3ccccc23)cc1
II: Cc1cccc(/C=C\c2ncc([N+](=O)[O-])n2CCOC(=O)c2c[nH]c3ccccc23)c1
III: COc1ccccc1/C=C\c1ncc([N+](=O)[O-])n1CCOC(=O)c1c[nH]c2ccccc12
[ask] Order the records so the highest IC50 appears first and the lowest last. Provide the labels, sequenced as the question asks.
[reply] II, I, III
(II: 75.3 µM, I: 45.2 µM, III: 21.4 µM)

1: O=C(OCCn1c([N+](=O)[O-])cnc1/C=C/c1ccc(Cl)cc1)c1c[nH]c2ccccc12
2: Cc1ccccc1/C=C\c1ncc([N+](=O)[O-])n1CCOC(=O)c1c[nH]c2ccccc12
[ask] # query: argmin of IC50 over 1 and 2 Bench note: the answer is the label of the chosen record.
[reply] 2
